- Tested on: LOX IMVI
- Measurement Description: NCI tumour cell line growth inhibition, 48 h
Activity calls are given as the source filed them. No stated cut-off is given here; in the data, active = GI50 up to about 1.1 µM and inactive = higher.
Readout Name: GI50

- COc1cc(S(=O)(=O)Nc2ccc(-c3csc(/N=C\c4cccc(Oc5ccccc5)c4)n3)cc2)ccc1Cl: 19.3 µM (inactive)
- CN1C/C(=C\c2cccs2)C(=O)/C(=C/c2cccs2)C1: 16.3 µM (inactive)
- O=c1[nH]c(=O)n(C2OC(CO)C(O)C2O)c2ccsc12 (stereo unspecified): > 100 µM (inactive)
- Nc1nc(N)c2ncn(CC3CCC(CO)C3)c2n1 (stereo unspecified): > 100 µM (inactive)
- C/C=C/C=C/[C@H]1Cc2cc(O)cc(O)c2O1: 47.9 µM (inactive)
- COc1ccc(-c2nc(N)c(C#N)c3c2CCSc2ccc(C)cc2-3)cc1OC: 14.8 µM (inactive)
- C#CCNC(=O)CCC(N)C(=O)O (stereo unspecified): > 100 µM (inactive)
- NC(Cc1ccc(S(=O)(=O)O)cc1)C(=O)NC(Cc1ccc(S(=O)(=O)O)cc1)C(=O)O (stereo unspecified): > 100 µM (inactive)
- CC(=O)O[C@H]1CC[C@@H](OC(C)=O)[C@H]2[C@H](O)[C@H](O)[C@@H]1n1c(=O)n(-c3ccccc3)c(=O)n12: > 100 µM (inactive)
- CC(=O)NNc1nc(C)c(C(=O)/C=C/C=C/c2ccccc2)s1: > 100 µM (inactive)
- O=C1C=C(Nc2ccc(Br)cc2)c2ccccc2/C1=N/O: 2.18 µM (inactive)
- Cc1cc2c(CC(=O)O)n[nH]c2c(C(=O)O)c1C: > 100 µM (inactive)
- COc1ccc2c(c1)c1c(n2CCN2CCCCC2)-c2ccccc2CC1: 21.3 µM (inactive)
- c1ccc(P2c3ccccc3Nc3ccccc32)cc1: 45.8 µM (inactive)
- O=C1C(F)=CC(COC(c2ccccc2)(c2ccccc2)c2ccccc2)OC1n1cc(F)c(=O)[nH]c1=O (stereo unspecified): 0.533 µM (active)
- O=C1NC2(CCCC2)/C(=N\O)C12CCCC2: > 100 µM (inactive)
- CC(=O)OC[C@@H](OC(C)=O)[C@H](OC(C)=O)[C@@H]1OC(C)(C)O[C@@H]1C1SCCCS1: > 100 µM (inactive)
- COC(=O)[C@@]12CC3CN(Cc4c1[nH]c1ccccc41)C2CC3=O: > 100 µM (inactive)
- COc1ccc2cc1Oc1ccc(cc1)CC1c3cc4c(cc3CCN1C)Oc1c(OC)cc3c(c1O4)C(C2)N(C)CC3 (stereo unspecified): 1.46 µM (inactive)
- O=c1cc2n(c(=O)[nH]1)C1OC(C(O)C1O)[C@H]2CCO (stereo partly specified): > 100 µM (inactive)
- CCN(CC)CC(O)C1CCC(c2ccccc2)CC1 (stereo unspecified): 17.4 µM (inactive)
